The values you see were collected from PubChem BioAssay.

- Target system: Neurogenic locus notch homolog protein 3 (Homo sapiens) (UniProt Q9UM47)
- Sequence (Q9UM47 whole entry, looked up): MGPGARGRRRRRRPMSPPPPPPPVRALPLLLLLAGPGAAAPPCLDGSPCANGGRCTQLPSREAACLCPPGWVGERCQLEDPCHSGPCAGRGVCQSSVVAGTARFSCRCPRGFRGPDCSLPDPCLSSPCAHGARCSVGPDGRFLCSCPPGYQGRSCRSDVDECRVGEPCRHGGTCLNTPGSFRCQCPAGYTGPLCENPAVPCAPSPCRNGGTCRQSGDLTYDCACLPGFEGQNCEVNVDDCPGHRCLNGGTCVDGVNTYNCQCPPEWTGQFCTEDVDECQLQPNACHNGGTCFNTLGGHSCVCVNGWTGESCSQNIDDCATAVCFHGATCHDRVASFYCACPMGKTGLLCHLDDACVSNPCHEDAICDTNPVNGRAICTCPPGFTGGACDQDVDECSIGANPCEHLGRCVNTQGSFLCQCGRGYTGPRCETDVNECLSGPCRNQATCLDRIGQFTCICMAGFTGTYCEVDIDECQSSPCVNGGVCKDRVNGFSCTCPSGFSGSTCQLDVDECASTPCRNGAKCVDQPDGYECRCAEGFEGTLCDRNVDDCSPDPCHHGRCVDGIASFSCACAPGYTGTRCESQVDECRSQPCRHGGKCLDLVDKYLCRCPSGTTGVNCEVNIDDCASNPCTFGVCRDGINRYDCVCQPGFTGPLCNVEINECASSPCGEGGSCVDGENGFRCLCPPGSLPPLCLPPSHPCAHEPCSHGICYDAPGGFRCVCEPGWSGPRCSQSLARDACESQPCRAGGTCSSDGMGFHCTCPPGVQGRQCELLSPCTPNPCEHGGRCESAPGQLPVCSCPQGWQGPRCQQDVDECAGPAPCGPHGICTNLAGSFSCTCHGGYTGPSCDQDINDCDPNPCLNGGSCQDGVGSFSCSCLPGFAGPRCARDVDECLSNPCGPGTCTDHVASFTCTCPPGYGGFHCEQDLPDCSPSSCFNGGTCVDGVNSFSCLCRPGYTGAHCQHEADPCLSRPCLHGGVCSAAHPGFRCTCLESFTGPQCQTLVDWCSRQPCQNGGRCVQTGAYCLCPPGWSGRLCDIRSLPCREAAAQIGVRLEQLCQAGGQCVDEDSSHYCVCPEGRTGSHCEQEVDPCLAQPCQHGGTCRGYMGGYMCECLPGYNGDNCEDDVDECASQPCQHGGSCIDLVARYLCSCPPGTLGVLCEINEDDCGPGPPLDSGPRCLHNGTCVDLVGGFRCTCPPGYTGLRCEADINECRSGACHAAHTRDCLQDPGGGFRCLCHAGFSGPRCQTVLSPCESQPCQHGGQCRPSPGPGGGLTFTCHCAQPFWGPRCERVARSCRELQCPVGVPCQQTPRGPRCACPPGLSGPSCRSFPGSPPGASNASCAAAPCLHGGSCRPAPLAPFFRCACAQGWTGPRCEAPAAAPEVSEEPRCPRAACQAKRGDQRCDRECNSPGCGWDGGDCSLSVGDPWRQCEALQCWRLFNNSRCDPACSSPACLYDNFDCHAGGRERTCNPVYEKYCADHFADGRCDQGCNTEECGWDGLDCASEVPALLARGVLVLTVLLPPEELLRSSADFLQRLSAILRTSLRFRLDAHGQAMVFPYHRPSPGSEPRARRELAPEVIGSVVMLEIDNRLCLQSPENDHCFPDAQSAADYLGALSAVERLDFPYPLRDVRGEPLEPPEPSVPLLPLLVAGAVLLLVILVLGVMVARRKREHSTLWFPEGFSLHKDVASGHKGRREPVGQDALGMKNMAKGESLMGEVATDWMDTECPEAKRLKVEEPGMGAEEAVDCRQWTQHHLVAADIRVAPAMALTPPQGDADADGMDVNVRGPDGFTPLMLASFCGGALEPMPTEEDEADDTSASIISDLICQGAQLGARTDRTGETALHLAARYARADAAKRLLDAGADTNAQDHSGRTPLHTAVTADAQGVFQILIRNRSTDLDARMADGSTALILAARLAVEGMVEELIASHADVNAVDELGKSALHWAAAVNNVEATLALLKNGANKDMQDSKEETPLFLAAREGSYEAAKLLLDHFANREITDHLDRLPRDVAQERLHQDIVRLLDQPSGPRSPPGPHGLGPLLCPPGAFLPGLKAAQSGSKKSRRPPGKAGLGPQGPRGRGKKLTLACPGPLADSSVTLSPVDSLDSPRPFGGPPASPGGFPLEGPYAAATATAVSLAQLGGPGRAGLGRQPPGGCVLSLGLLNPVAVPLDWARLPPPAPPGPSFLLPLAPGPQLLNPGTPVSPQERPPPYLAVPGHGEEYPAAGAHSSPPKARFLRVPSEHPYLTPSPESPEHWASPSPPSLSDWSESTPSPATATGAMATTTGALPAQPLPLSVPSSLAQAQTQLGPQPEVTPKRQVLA
- Assay text: NOTCH3 binders on small-molecule microarray, primary screen, biochemical, 635/667 nm fluorescence (AID 1096)
- Experimental conditions: NOTCH3 binding, 635 nm fluorescence, higher = more signal
yes means recorded composite z-score is 0.8 or above; no means it is below 0.8.

Below are worked cases with known answers.
{"columns": ["Molecule", "Classification"],
 "data": [
  ["CCC(CC)C(O)C1C=CC2C(=O)NC(=O)C2N1Nc1ccccn1 (stereo not drawn)", "no"],
  ["COCC(=C=CC[C@@H](O)c1cccc(OCCO)c1)C[C@@H](O)c1ccccn1", "no"],
  ["CC1CC/C=C\\[C@H]2OC34C=CCN(Cc5ccccc5)C(=O)[C@H]3N(CCCO)C(=O)[C@@H]4C2C(=O)O1 (stereo partly drawn)", "no"],
  ["C=CC1(C(=O)OC)CC=C(C(=O)OC)CC1 (stereo not drawn)", "no"],
  ["COCCOC(=O)N1C(=O)[C@@]2(c3cc(C#Cc4ccc(OC)cc4)ccc31)[C@H](c1ccccc1OCCO)N1[C@H](c3ccccc3)[C@H](c3ccccc3)OC(=O)[C@H]1[C@@H]2C(=O)NC[C@H](O)c1ccccc1", "yes"],
  ["O=C(c1ccccc1)N1Cc2ccccc2C[C@@]2(COC(c3ccc(OCCCO)cc3)=N2)C1=O", "yes"]
]}

API: above_or_equal(metric=composite z-score, cutoff=0.8) for item CN1C(=O)C2C=CC(C(O)C3CC=CCC3)N(N(c3ccccc3)c3ccccc3)C2C1=O (stereo not drawn)
no

API: above_or_equal(metric=composite z-score, cutoff=0.8) for item `CC[C@@H]1C=C(C(=O)O)[C@H](c2ccc(Br)cc2)N1S(=O)(=O)c1ccc(C)cc1`
no

API: above_or_equal(metric=composite z-score, cutoff=0.8) for item `COC(=O)[C@@]1(Cc2ccc(OC)cc2)[C@H]2c3cc(C(=O)N(C)C)n(Cc4ccc(S(C)(=O)=O)cc4)c3C[C@H]2CN1C(=O)c1ccccc1`
yes

API: above_or_equal(metric=composite z-score, cutoff=0.8) for item `CC(C)N1C(=O)c2ccccc2[C@](C)(C(=O)NCCN2CCOCC2)[C@@H]1c1ccc(CO)cc1`
no

API: above_or_equal(metric=composite z-score, cutoff=0.8) for item O=C1NC(=O)C2C1C=CC(C(O)c1cccs1)N2Nc1ccc(Cl)cc1Cl (stereo not drawn)
no

API: above_or_equal(metric=composite z-score, cutoff=0.8) for item `CCOC(=O)C[C@H]1[C@H](OC(=O)c2ccc(C(=O)c3ccccc3)cc2)[C@@H](NC(=O)CC(C)C)c2cc(OCCCO)ccc2N1C(=O)c1ccc2ccccc2n1`
yes

API: above_or_equal(metric=composite z-score, cutoff=0.8) for item `[N-]=[N+]=Nc1ccccc1[C@H]1OC(c2ccc(OCCCO)cc2)=N[C@@]1(CCS(=O)(=O)c1ccccc1)C(N)=O`
no

API: above_or_equal(metric=composite z-score, cutoff=0.8) for item CN1C(=O)C2C=CC(C(O)c3ccc([N+](=O)[O-])cc3)N(N3CCCCC3)C2C1=O (stereo not drawn)
yes

API: above_or_equal(metric=composite z-score, cutoff=0.8) for item `COCCOC(=O)N1C(=O)[C@@]2(c3cc(C#Cc4ccc(OC)cc4)ccc31)[C@H](c1ccc(O)cc1)N1[C@H](c3ccccc3)[C@H](c3ccccc3)OC(=O)[C@H]1[C@@H]2C(=O)N1CCc2cc(OC)c(OC)cc2C1`
yes

API: above_or_equal(metric=composite z-score, cutoff=0.8) for item `COCCOC(=O)N1C(=O)[C@@]2(c3cc(C#CCC(C(=O)OC)C(=O)OC)ccc31)[C@H](c1ccccc1OCCO)N1[C@H](c3ccccc3)[C@H](c3ccccc3)OC(=O)[C@H]1[C@@H]2C(=O)N1CCN(c2ncccn2)CC1`
yes

API: above_or_equal(metric=composite z-score, cutoff=0.8) for item `O=C(CS)NCCCCCCNC(=O)[C@@H]1C[C@@H]2C(=O)N[C@@H](Cc3ccccc3)C(=O)N2[C@@H]1c1cccc(OCCO)c1`
yes

API: above_or_equal(metric=composite z-score, cutoff=0.8) for item CCCCCN1CC=CC23O[C@@H]4C=CCCOC(=O)C4[C@H]2C(=O)N(CCCCCO)[C@@H]3C1=O (stereo partly drawn)
no

API: above_or_equal(metric=composite z-score, cutoff=0.8) for item `COC(=O)[C@@]1(Cc2ccc(OC)cc2)[C@H]2c3cc(C(=O)N4CCCC4)n(CCN4CNCC4=O)c3C[C@H]2CN1C(=O)c1ccccc1`
no

API: above_or_equal(metric=composite z-score, cutoff=0.8) for item `COCCOC(=O)N1C(=O)[C@@]2(c3cc(C#CCNC(N)=O)ccc31)[C@H](C(=O)Nc1nc3ccccc3s1)[C@H]1C(=O)O[C@H](c3ccccc3)[C@H](c3ccccc3)N1[C@@H]2c1ccc(OCCO)cc1`
yes

API: above_or_equal(metric=composite z-score, cutoff=0.8) for item CC(C)C(O)C1C=CC2C(=O)N(c3ccccc3)C(=O)C2N1Nc1ccc([N+](=O)[O-])cc1 (stereo not drawn)
no

API: above_or_equal(metric=composite z-score, cutoff=0.8) for item `COc1cccc(-c2cccc(=O)o2)c1`
no

API: above_or_equal(metric=composite z-score, cutoff=0.8) for item `COC(=O)C(CC#Cc1ccc2c(c1)[C@]1(C(=O)N2)[C@H](c2ccc(OCCO)cc2)N2[C@H](c3ccccc3)[C@H](c3ccccc3)OC(=O)[C@H]2[C@@H]1C(=O)Nc1nc2ccccc2s1)C(=O)OC`
yes

API: above_or_equal(metric=composite z-score, cutoff=0.8) for item `O=C1c2ccccc2[C@](Cc2ccccc2I)(C(=O)NCC(F)(F)F)[C@H](c2ccc(CO)cc2)N1Cc1ccccc1Cl`
yes

API: above_or_equal(metric=composite z-score, cutoff=0.8) for item O=C1OCCC/C=C\[C@H]2OC34C=CCN(Cc5ccccc5)C(=O)[C@H]3N(CCCO)C(=O)[C@@H]4C12 (stereo partly drawn)
no

API: above_or_equal(metric=composite z-score, cutoff=0.8) for item `NC(=O)NCC#Cc1ccc2c(c1)[C@]1(C(=O)N2)[C@H](c2ccccc2OCCO)N2[C@H](c3ccccc3)[C@H](c3ccccc3)OC(=O)[C@H]2[C@@H]1C(=O)Nc1nc2ccccc2s1`
no

API: above_or_equal(metric=composite z-score, cutoff=0.8) for item CC1(C)[C@@H]2CC(C(O)C3C=CC4C(=O)N(c5ccccc5)C(=O)C4N3Nc3ccc([N+](=O)[O-])cc3)=C[C@H]1C2 (stereo partly drawn)
yes
